- subjectOfTest: Antigen 1 (Ab1 target) expressed on HEK293 / HEK-293F cells
- Sequence (P06756 31-1048, chain 1 of 2): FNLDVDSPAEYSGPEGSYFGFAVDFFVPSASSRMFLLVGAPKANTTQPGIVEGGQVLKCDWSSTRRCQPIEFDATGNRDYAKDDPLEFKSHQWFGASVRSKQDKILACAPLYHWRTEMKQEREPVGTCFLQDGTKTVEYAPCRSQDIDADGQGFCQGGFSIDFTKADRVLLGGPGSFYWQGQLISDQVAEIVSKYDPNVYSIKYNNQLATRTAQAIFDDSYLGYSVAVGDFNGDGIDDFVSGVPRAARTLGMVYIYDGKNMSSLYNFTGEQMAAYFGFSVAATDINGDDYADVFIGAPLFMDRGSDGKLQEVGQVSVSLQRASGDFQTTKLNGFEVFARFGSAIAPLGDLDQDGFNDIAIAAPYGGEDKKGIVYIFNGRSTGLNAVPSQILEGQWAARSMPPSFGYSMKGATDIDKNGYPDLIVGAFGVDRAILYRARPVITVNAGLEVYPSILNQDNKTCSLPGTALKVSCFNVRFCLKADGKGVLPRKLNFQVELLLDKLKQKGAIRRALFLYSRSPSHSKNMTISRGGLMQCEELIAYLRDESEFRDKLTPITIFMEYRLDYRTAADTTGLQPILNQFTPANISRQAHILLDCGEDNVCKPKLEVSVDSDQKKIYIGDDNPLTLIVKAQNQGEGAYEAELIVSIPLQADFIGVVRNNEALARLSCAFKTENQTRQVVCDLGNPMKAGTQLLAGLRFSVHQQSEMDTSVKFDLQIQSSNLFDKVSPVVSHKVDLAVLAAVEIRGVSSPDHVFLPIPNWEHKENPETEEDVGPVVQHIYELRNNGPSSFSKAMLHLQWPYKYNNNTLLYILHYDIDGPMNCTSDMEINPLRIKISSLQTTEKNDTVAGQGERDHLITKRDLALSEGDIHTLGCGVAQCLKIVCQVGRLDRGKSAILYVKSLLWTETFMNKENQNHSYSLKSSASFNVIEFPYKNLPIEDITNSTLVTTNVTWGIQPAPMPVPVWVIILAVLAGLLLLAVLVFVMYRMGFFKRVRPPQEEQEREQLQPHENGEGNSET
- Sequence (P18564 22-788, chain 2 of 2, further chain): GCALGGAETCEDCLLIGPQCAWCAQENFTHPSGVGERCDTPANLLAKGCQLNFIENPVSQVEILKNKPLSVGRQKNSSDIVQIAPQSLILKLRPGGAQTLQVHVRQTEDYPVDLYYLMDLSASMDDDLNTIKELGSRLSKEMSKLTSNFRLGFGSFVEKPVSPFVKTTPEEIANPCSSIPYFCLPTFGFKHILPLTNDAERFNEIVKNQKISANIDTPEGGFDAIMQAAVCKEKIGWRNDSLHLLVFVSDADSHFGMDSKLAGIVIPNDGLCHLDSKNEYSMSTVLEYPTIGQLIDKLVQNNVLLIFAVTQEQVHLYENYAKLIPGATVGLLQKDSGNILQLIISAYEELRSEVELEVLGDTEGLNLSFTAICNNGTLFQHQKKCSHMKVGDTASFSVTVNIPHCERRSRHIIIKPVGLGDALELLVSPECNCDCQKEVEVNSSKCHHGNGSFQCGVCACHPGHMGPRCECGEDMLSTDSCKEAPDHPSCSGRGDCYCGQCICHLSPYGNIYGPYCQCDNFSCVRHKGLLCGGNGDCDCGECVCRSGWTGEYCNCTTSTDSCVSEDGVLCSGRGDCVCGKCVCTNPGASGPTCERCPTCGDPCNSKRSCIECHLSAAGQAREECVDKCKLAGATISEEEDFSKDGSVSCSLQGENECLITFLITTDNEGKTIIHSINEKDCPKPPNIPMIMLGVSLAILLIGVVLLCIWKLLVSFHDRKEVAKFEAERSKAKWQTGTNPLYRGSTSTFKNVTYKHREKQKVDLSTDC
- testSummary: saturation binding FACS, HEK293 cells
quantityName: EC50 fold change from Ab1 (fold)
# unit: fold | format: bare number

Below: 3 binders and their reported EC50 fold change from Ab1.
I am curious: what EC50 fold change from Ab1 value has been reported for Vel-IPV-Ab1 Coil 126 (antibody, part only; not given: Ab1 heavy and light chains, part only) heavy, part: QGASTSVDELQAEVDQLEDENYAYKTKVAQLRKKVEKLGSIPVSLRSG light, part: QGASTTVAQLEEKVKTLRAENYESKSEVQRLEEQVAQLGSIPVSLRSG ?
68

I am curious: what EC50 fold change from Ab1 value has been reported for Vel-IPV-Ab1 Coil 114 (antibody, part only; not given: Ab1 heavy and light chains, part only) heavy, part: QGASTSVDELQAEVDQLEDENYAWKTKVAQLRKKVEKLGSIPVSLRSG light, part: QGASTTVAQLEEKVKTLRAENYEFKSEVQRLEEQVAQLGSIPVSLRSG ?
423

I am curious: what EC50 fold change from Ab1 value has been reported for Vel-IPV-Ab1 Coil 118 (antibody, part only; not given: Ab1 heavy and light chains, part only) heavy, part: QGASTSVDELQAEVDQLEDENYAFKTKVAQLRKKVEKLGSIPVSLRSG light, part: QGASTTVAQLEEKVKTLRAENYESKSEVQRLEEQVAQLGSIPVSLRSG ?
120

Please find the next binder below.
I am curious: what EC50 fold change from Ab1 value has been reported for Vel-IPV-Ab1 Coil 103 (antibody, part only; not given: Ab1 heavy and light chains, part only) heavy, part: QGASTSVDELQAEVDQLEDENYAGKTKVAQLRKKVEKLGSIPVSLRSG light, part: QGASTTVAQLEEKVKTLRAENYEYKSEVQRLEEQVAQLGSIPVSLRSG ?
15
